biological target: UCHL3 C95 (P15374) (Homo sapiens); test: Competitive isoTOP-ABPP, cell lysates; type: binding; conditions: 500 μm, in-vitro_ramos
Sequence (P15374 whole entry): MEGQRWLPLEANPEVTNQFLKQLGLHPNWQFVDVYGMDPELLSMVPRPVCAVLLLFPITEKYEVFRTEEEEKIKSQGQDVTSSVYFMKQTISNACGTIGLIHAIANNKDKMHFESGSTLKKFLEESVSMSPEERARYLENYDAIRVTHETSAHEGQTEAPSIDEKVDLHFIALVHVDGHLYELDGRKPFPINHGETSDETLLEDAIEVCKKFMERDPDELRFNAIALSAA
Experimental readout: isoTOP-ABPP reactivity profile ratio, P15374_C95
Lab note: record just the number, no unit beside it.

[in] Give its isoTOP-ABPP reactivity profile ratio, P15374_C95 value. Item: C=CC(=O)N1CCC(Cc2ccccc2)CC1 [compound 53]
[out] 0.7

[in] Give its isoTOP-ABPP reactivity profile ratio, P15374_C95 value. Item: O=C(CCl)Nc1cccc2ncccc12 [compound 51]
[out] 0.9

[in] Give its isoTOP-ABPP reactivity profile ratio, P15374_C95 value. Item: COc1cc(NC(=O)CCl)cc(OC)c1 [compound 43]
[out] 20.0

[in] Give its isoTOP-ABPP reactivity profile ratio, P15374_C95 value. Item: N#CC(=Cc1ccc(-c2ccccc2Cl)o1)C(N)=O [compound 42]
[out] 0.9

Origin of measurements: patent US10670605B2
